src = patent US20260102359A1

Entries below carry reported Compound Myofibroblast Cytotoxicity Activity on hDMFa myofibroblast cells.

Recorded Compound Myofibroblast Cytotoxicity Activity, per entry:
CCCCCCCCOc1ccccc1C(=O)Nc1ccc(C(=O)OCC[N+](C)(CC)CC)cc1 [Cmpd 741, Otilonium Bromide] : +++++
CCN(CC)CC#CCOC(=O)C(O)(c1ccccc1)C1CCCCC1 (centres unmarked) : ++
CC1(C)NC(=O)N(c2ccc([N+](=O)[O-])c(C(F)(F)F)c2)C1=O [Cmpd 714, Nilutamide] : ++++
CC1=C(C/C=C(\C)CCC[C@H](C)CCC[C@H](C)CCCC(C)C)C(=O)c2ccccc2C1=O : ++
CCN1CCN(c2cc(-c3ccc(F)cc3)c3c(n2)CCCCCC3)CC1 : +++
COc1cc(NC(C)CCCN)c2ncccc2c1.O=P(O)(O)O.O=P(O)(O)O (centres unmarked) [Cmpd 796, Primaquine Diphosphate] : +++
CC(=O)OCC[N+](C)(C)C.[I-] [Cmpd 83, Acetylcholine iodide] : ++
O=C(N/N=C/c1ccc([N+](=O)[O-])o1)c1ccc(O)cc1 [Cmpd 711, Nifuroxazide] : ++

Query: Recall the recorded Compound Myofibroblast Cytotoxicity Activity for O=C1CCc2ccc(OCCCCN3CCN(c4cccc(Cl)c4Cl)CC3)cc2N1 with hDMFa myofibroblast cells and state it.
Response: +++

Query: Queued: COc1cc([C@@H]2c3cc4c(cc3[C@@H](O[C@@H]3O[C@@H]5CO[C@@H](c6cccs6)O[C@H]5[C@H](O)[C@H]3O)[C@H]3COC(=O)[C@H]23)OCO4)cc(OC)c1O [Cmpd 925, Teniposide]
Response: ++
